tested.system: p300 (Homo sapiens, UniProt Q09472)
Construct: host or cells: A549 P300 HiBit cells
Sequence (Q09472 whole entry): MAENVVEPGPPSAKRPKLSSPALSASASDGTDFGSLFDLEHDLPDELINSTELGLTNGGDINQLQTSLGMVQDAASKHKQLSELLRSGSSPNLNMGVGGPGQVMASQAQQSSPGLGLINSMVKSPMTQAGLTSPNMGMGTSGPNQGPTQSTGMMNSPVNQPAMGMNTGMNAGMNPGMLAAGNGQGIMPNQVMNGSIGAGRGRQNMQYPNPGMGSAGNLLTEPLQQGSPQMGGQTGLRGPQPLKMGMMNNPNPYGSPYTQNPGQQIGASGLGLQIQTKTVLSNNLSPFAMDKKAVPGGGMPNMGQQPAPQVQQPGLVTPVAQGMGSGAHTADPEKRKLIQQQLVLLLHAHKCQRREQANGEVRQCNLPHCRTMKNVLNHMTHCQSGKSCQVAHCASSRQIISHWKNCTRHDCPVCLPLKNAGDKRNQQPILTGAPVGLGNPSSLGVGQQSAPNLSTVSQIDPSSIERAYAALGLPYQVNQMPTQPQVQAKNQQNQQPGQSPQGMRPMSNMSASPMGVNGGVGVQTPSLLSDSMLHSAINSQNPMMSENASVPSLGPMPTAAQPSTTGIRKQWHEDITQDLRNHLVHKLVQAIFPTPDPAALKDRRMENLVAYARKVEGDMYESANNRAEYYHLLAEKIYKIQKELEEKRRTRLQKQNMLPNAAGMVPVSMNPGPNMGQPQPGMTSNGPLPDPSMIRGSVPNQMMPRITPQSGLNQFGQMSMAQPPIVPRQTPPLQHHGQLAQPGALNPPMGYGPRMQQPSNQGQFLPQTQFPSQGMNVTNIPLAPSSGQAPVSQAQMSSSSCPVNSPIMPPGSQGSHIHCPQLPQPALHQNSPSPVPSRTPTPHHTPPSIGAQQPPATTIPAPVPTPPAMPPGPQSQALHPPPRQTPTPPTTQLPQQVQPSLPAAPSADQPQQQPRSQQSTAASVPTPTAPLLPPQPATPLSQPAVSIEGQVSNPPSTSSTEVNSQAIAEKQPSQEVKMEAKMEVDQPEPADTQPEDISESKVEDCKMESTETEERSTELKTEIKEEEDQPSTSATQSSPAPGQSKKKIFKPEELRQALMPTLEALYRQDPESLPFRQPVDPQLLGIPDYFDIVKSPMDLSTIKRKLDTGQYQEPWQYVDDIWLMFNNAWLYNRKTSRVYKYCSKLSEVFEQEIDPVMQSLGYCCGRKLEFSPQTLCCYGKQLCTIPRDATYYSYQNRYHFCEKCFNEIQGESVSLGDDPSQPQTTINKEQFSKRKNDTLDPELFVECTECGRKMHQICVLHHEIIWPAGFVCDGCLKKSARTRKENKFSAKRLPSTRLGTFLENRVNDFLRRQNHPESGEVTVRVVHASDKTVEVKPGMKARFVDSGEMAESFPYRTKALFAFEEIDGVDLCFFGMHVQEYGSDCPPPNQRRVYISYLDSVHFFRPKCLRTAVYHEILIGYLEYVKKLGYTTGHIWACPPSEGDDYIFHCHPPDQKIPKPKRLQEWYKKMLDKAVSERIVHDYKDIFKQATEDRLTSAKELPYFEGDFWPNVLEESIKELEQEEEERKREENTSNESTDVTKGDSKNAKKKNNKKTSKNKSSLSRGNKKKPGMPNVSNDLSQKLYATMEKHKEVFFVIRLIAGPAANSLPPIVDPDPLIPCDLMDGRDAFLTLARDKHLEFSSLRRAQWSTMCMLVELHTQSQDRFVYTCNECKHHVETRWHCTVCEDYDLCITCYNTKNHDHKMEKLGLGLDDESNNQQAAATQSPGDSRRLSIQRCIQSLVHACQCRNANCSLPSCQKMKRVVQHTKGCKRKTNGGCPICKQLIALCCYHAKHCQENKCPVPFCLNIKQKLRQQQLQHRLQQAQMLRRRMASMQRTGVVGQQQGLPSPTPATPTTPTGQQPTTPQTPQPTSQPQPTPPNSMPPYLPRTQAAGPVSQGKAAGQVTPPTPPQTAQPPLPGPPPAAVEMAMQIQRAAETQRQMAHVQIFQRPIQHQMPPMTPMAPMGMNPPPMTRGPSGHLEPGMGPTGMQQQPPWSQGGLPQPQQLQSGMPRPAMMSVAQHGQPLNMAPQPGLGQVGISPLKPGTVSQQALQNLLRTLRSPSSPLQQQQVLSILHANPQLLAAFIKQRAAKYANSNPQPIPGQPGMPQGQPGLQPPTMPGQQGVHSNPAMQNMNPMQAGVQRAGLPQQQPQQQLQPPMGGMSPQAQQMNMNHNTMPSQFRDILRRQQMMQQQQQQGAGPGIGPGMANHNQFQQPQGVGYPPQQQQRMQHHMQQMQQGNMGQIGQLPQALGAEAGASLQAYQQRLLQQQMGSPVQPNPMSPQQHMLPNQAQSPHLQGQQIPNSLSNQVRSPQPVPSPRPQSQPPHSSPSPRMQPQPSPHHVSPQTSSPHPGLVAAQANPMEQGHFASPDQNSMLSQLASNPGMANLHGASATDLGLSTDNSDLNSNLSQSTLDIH
run.description: P300 degradation, HiBit technology in A549 P300 HiBit cells (2 h)
Type: cell-based
conditions.used: A549, A549 P300 HiBit cells, 2 hrs post treatment
quantity: Dmax

# example entries with known answers
[
  {
    "compound": "Cc1cc(-c2ccc(N(C)c3cc(C4CCOCC4)c4c(c3)n(C)c(=O)n4C)cn2)cnc1C(=O)NCC#Cc1cccc(NC2CCC(=O)NC2=O)c1 (centres unmarked) [Example A45]",
    "quantity": "Dmax",
    "measured.result": "> 80%"
  },
  {
    "compound": "Cc1cc(-c2ccc(N(C)c3cc(C(C)C)c4c(c3)n(C)c(=O)n4C)cc2C#N)cnc1C(=O)NCC#Cc1cccc(NC2CCC(=O)NC2=O)c1 (centres unmarked) [Example A46]",
    "quantity": "Dmax",
    "measured.result": "> 80%"
  },
  {
    "compound": "Cc1cc(-c2cc(F)c(Nc3cc(C4CCOCC4)c4c(c3)n(C)c(=O)n4C)cc2C(F)(F)F)cnc1C(=O)NCC#Cc1cc2c(C3CCC(=O)NC3=O)cccc2o1 (centres unmarked) [Example A244]",
    "quantity": "Dmax",
    "measured.result": "40 to 59%"
  },
  {
    "compound": "Cc1cc2c(N3CCCc4nc(-c5ccc(C(=O)NCC#Cc6cc7c(C8CCC(=O)NC8=O)cccc7o6)nc5)ncc43)cc(C3COC3)nc2n(C)c1=O (centres unmarked) [Example B163]",
    "quantity": "Dmax",
    "measured.result": "> 80%"
  },
  {
    "compound": "Cc1cc2c(N3CCCc4nc(-c5ccc(C(=O)NCC#Cc6cc7c(C8CCC(=O)NC8=O)cccc7o6)nc5)ncc43)cc(C3CCC(F)(F)CC3)nc2n(C)c1=O (centres unmarked) [Example B158]",
    "quantity": "Dmax",
    "measured.result": "> 80%"
  }
]

Measured Dmax, Cc1cc(-c2ncc(N(C)c3cc(C(C)C)c4c(c3)n(C)c(=O)n4C)cc2Cl)cnc1C(=O)NCC#Cc1ccc2occ(C3CCC(=O)NC3=O)c2c1 (centres unmarked) [Example A116] : > 80%

Measured Dmax, Cc1cc(-c2ncc(N(C)c3cc(C(C)C)c4c(c3)n(C)c(=O)n4C)cc2F)cnc1C(=O)NCC#Cc1cccc(NC2CCC(=O)NC2=O)c1 (centres unmarked) [Example A47] : > 80%

Measured Dmax, Cc1nc(-c2ncc(N(C)c3cc(C4CCOCC4)c4c(c3)n(C)c(=O)n4C)cn2)cnc1C(=O)NCC#Cc1cc2c(C3CCC(=O)NC3=O)cccc2o1 (centres unmarked) [Example A187] : > 80%

Measured Dmax, Cc1cc(-c2ncc(N(C)c3cc(C4CCOCC4)c4c(c3)n(C)c(=O)n4C)cn2)cnc1C(=O)NCC#Cc1ccc2occ([C@H]3CCC(=O)NC3=O)c2c1 [Example A54] : > 80%

Measured Dmax, Cc1cc(-c2cc3cccc(-c4nc(N5CCOCC5)cc5c4cc(C)c(=O)n5C)c3cn2)cnc1C(=O)NCC#Cc1cc2c(C3CCC(=O)NC3=O)cccc2o1 (centres unmarked) [Example B167] : > 80%

Measured Dmax, Cc1cc(-c2ncc(N(C)c3cc(C4CCOCC4)c4c(c3)n(C)c(=O)n4C)cn2)cnc1C(=O)NCC#Cc1cc2c(C3CCC(=O)NC3=O)cccc2o1 (centres unmarked) [Example A256] : > 80%
